Tested on: K4 kissing-loop RNA reporter
Test: apparent KD of K4 kissing-loop reporter; higher = weaker reporter binding
Conditions: Eterna round: R107; input ligand: arginine 13.2 mM
Each entry below carries its reported apparent KD of K4 kissing-loop reporter.
Report the value in nM with no unit label.

# count of solved cases: 5
AGUUCCUCUGUCGAUACCAGCUUCAGUUGGCGGCCAGUGAUGUUGGUAUCGCCGAUGCCAAGCCCUUGGCAGCGACAUGAGACCC [Lausso]: 187
UGUGUUGUUUUGAUGUUUGGUGUAAGUUGGCAGGAUAUCGUAGAGGCGAGAAGGGCUUUUAUGCGUUAUGAGUGAUGUUUGUAGG [zrrzmullin]: 330
UGUCAUGGAAACAUGAACGUUGAUGUUCGACGAGGACCGGUACGGCCGCCACUCGAGUAAUAGUCAGUGAUGUUGACUUGUCUAA [KL-SSTryp-A form1 sub3]: 107
CAGUUCUAUUCCGGUAGUGAUGUUACCAAGCGAGGACCGGUACGGCCGCCACUCGAGUGACAGACGUACUGGUAUCACCCGCUUC: 172
UUUCGUUGAAGUGAUACCAGACUUGAAAGUGAUGUUUUCCAAUAAUUUAAAUUAUUAGCUGUCCCUUGGCAGCACAGUUUAUUUA [JR_ExcTheophyB_Sub007]: 371

Alright, here's another sequence for you.
Query string: Would you kindly share the measured apparent KD of K4 kissing-loop reporter for CCAUCGCUAUUCGAUACCAGUCAUCACAUCUUUGGUGUGAUAAAGGAGUGAUGUUCCCAAGACCCUUGGCAGCGAAUAGUGAUGG [Theophylline B K4 11] ?
Result string: 222

###

Tested on: MS2 coat protein
Experiment: apparent KD of MS2 coat protein; designed switch direction (-1 OFF switch, 1 ON switch): 1; higher = weaker reporter binding
Conditions: input ligand: none
Label Y when apparent KD of MS2 coat protein is at or above 40 nM; anything below gets N.

Recorded results for 5 sequences are shown here.
GUGGUCAGACAUGAGGAUCACCCAUGUGGAAUAAAUAACACACAGGAUAUGGAAUAUAAAAUAUACCAGAAGGGUGGAUUGGUG (Eterna round: R96, puzzle: Same State NG 3): Y
GGUGCCAAUAAAGCCUACAUGAGGAUCACCCAUGUAUGUAGGCAGGAUAUCGUUUGCUUUGCAAACGAGAAGGGCCUAGGCACC [JL SSNG3 1.21] (Eterna round: R96, puzzle: Same State NG 3): N
GAGUGGAGGAGAGGAUAUACAUUGAUAAUCACUGUAGAAGGUUCUAACAUGAGGAUCACCCAUGUAGGACUAUUCCUGAGAGUU [Parity 52 - Jieux - Same State NG 1] (Eterna round: R96, puzzle: Same State NG 1): N
GGAGCCAAGGCAGGAUAUUCAUAUUAAUAACACAUGAGGAUCACCCAUGUGGCCAGAAGGCCAAGGGAGAAGGGCCAUGGCUCG [Xeonanis - 13 mod11] (Eterna round: R96, puzzle: Same State NG 2): Y
AAAGAAAACAUAGGAUAUGUAACAUGAGGAUCACCCAUGUGUAGCCCGUAAGGGAUGACGGAUGGACAGAAGGAUGGUCUCAGG [Default title] (Eterna round: R96, puzzle: Same State NG 2): Y

Query string: Does the reported apparent KD of MS2 coat protein for UGAACCGUCACAGGAUAUCAUGCGAAAAUUGCGUGAGAAGGGUGGAUGUUGUGUUCAAAGAUGUACAUGAGGAUCACCCAUGUU [SameState NG1 #47] (Eterna round: R96, puzzle: Same State NG 1) fall at or above the 40 nM mark?
Result string: Y

Query string: Does the reported apparent KD of MS2 coat protein for AGAUCAUGACGAGGAUAUGGAACAUGAGGAUCACCCAUGUAUGUUCCAUAACGCGAAUGACGAAUCCAGAAGGCGUCGUGGUCA [JL SSNG2 1.10] (Eterna round: R96, puzzle: Same State NG 2) fall at or above the 40 nM mark?
Result string: Y

Query string: Does the reported apparent KD of MS2 coat protein for GUAGCAUGCAGGCAGGAUAUUCAUAUUAAAACAUGAGGAUCACCCAUGUAGGCCAAAAGGCCUUGGGAGAAGGGCCACAUGCUAC [Xeonanis - 19] (Eterna round: R96, puzzle: Same State 2) fall at or above the 40 nM mark?
Result string: Y

Query string: Does the reported apparent KD of MS2 coat protein for GGAGCCGGCCUAGGAUAUUUCAUAAAACAACAUGAGGAUCACCCAUGUAGGCCAGAAGGCCUUGGGAAGAAGGAGGUCGGCUCC [Loop Effect - C28] (Eterna round: R96, puzzle: Same State NG 2) fall at or above the 40 nM mark?
Result string: N

Query string: Does the reported apparent KD of MS2 coat protein for UGGCUCAGACGAGGAUAUAUGUGGUCACAUGAGGAUCACCCAUGUCUCGAGCUUCGGCUCGAGGCAUAGAAGGCGUCUGAGCCU [SSNG2/5-A3] (Eterna round: R96, puzzle: Same State NG 2) fall at or above the 40 nM mark?
Result string: Y

Query string: Does the reported apparent KD of MS2 coat protein for GAGCCAGUCCGAGGAUAUUCAUAUUACAUGAGGAUCACCCAUGUAGGCUCAGAAAAGGAGCCUUGGGAGAAGGCGGACUGGCUC [Xeonanisa<<3] (Eterna round: R96, puzzle: Same State NG 2) fall at or above the 40 nM mark?
Result string: Y

Query string: Does the reported apparent KD of MS2 coat protein for GCUGCAAGGGCAGGAUAUGGGUUCAGAGCGGAAGUGCGCUUUGAUACAUGAGGAUCACCCAUGUCCCAGAAGGGCCCAAACGGC [Beanti] (Eterna round: R96, puzzle: Same State NG 2) fall at or above the 40 nM mark?
Result string: Y

Query string: Does the reported apparent KD of MS2 coat protein for UGAAUGAUGAUAGGAUAUACAUGAGGAAUCCUCGUAGAAGGAUCAUGACAUGAGGAUCACCCAUGUAGCGCUCCGUAGAGCGCA [JL SSNG1 1.20] (Eterna round: R96, puzzle: Same State NG 1) fall at or above the 40 nM mark?
Result string: Y

Query string: Does the reported apparent KD of MS2 coat protein for AUUAUUUUUGCAGGAUAUGAUUAACAUGAGGAUCACCCAUGUGGUGUUGUGAGUAAGGAGAGUGAUCAGAAGGGCAUUUUUUUU [JMF's solution 60] (Eterna round: R96, puzzle: Same State NG 2) fall at or above the 40 nM mark?
Result string: Y

Query string: Does the reported apparent KD of MS2 coat protein for CGUCGUUUGUUAGGAUAUCGCUAUACAUGAGGAUCACCCAUGUUUACCACGCUGGUUUUUCAUACCGAGAAGGAUUCUGAUGUU [salish99_SSNG02_r04_019] (Eterna round: R96, puzzle: Same State NG 2) fall at or above the 40 nM mark?
Result string: N

Query string: Does the reported apparent KD of MS2 coat protein for UUACUCAUGUAAGGAUAUGCAGCCGAAACGGCUGCAGAAGGUACUAUAAUACAUGAGGAUCACCCAUGUCUUUUUAAUUUUUAC [Mat - Same State NG 1 - JL mod - D70] (Eterna round: R96, puzzle: Same State NG 1) fall at or above the 40 nM mark?
Result string: Y

Query string: Does the reported apparent KD of MS2 coat protein for CCGGCCACACAACAAGGCCAACAUGAGGAUCACCCAUGUACACAGGAUAUCGGCAGCCAAGGCUCCGAGAAGGGUGGUUCAAUU [Beage] (Eterna round: R96, puzzle: Same State NG 3) fall at or above the 40 nM mark?
Result string: Y

###

Test system: K4 kissing-loop RNA reporter;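 note: bound reporter read as fluorescence of individual clusters on recovered sequencing chips by microscopy, with normalized cluster intensities fitted with a binding model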
Test: apparent KD of K4 kissing-loop reporter; higher = weaker reporter binding
Conditions: Eterna round: R107; input ligand: FMN 200 uM
Each entry below carries its reported apparent KD of K4 kissing-loop reporter.
Report the value in nM with no unit label.

AUUAGGCGAAGUGAUGUUUCAUAUAAUGGCAAGGAUAUGUCCUUACACAGAAGGUGCUCUUAGUCAGGUUAUAUUAGGACUGCUA [theeternabot_exclusion_KL_FMN_A_42]: 446
AAAAUAAACCAGUGAUGUUGGUGUCCAGAUACCAGCGACAAAAGUCGCCCUUGGCAGCUGUGGACGUACAAAAUAAGUACGUCCU [MatMod 1 - Jieux - Same State - Theophylline A]: 390
GCCGUAGAUUGAAGGAGCGUUCUUCAGCAAACUUGCAGUGAUGUUGCAUUAAACAUGUAAGAACAGGUAGGUCGCAAUCUACGGC: 145
CCAUCGCUAUUCGAUACCAGUCAUCACAUCUUUGGUGUGAUAAAGGAGUGAUGUUCCCAAGACCCUUGGCAGCGAAUAGUGAUGG [Theophylline B K4 11]: 293

Alright, here's another sequence for you.
Query string: Would you kindly share the measured apparent KD of K4 kissing-loop reporter for GUCAUCAGAUCGCAAGAUCUGAUAGCCGAUACCAGCGCGAAGGUGCGCCCUUGGCAGCGGCACCGAGUGAUGUUCGGUCAGACGA [#2 Same State - Theophylline A Attempt #5 (HarryS)] ?
Result string: 526
